Recorded solubility at 18 h for the following compounds
experiment.notes: Solubility of the compound at pH 7.4 after 18 hrs by UV-spectroscopy
Assay type: physicochemical
measurement.setup: buffer
Write down the numeric answer in µM and omit the unit.

Below are worked cases with known answers.
CCCN1CCC(N(CCC(C)C)C(=O)Nc2cccc(C(F)(F)F)c2)CC1; 61
CCCCN1CCC(N(Cc2ccc3c(c2)OCO3)C(=O)Nc2cccc(C(F)(F)F)c2)CC1; 71

What value of solubility at 18 h has been recorded for this entry: `CCCN1CCC(N(Cc2ccc3c(c2)OCO3)C(=O)Nc2cccc(C(F)(F)F)c2)CC1`
66

Consider the compound `CCCN1CCC(N(CCC)C(=O)Nc2cccc(C(F)(F)F)c2)CC1` and give its measured solubility at 18 h.
61

Would you mind telling me what solubility at 18 h value was observed for `O=C(Nc1cccc(C(F)(F)F)c1)NC1CCN(C(=O)c2ccccc2)CC1` ?
2.8

Give the measured solubility at 18 h of `O=C(Nc1cccc(C(F)(F)F)c1)N(Cc1ccccc1)C1CCN(Cc2c[nH]cn2)CC1` .
110

What value of solubility at 18 h has been recorded for this entry: `CCCN1CCC(N(Cc2ccncc2)C(=O)Nc2cccc(C(F)(F)F)c2)CC1`
85

# lookup: solubility at 18 h of `O=C(Nc1cccc(C(F)(F)F)c1)NC1CCN(Cc2ccc(Cl)cc2)CC1`
0.8

May I ask what solubility at 18 h has been recorded for `Cc1ccccc1CN1CCC(NC(=O)Nc2cccc(C(F)(F)F)c2)CC1` ?
44

----------
experiment.notes: Solubility of the compound at pH 7.4 after 18 hrs by UV-spectroscopy
Type: physicochemical
measurement.setup: buffer
Returns YES if the recorded solubility at 18 h is greater than or equal to 50 µM, and NO otherwise.

Known results for compounds:
O=C(Nc1cccc(C(F)(F)F)c1)N(Cc1ccccc1)C1CCN(Cc2cc[nH]n2)CC1; YES
O=C(Nc1cccc(C(F)(F)F)c1)NC1CCN(Cc2ccccc2F)CC1; NO

Decide: is the reported value of solubility at 18 h for `O=C(Nc1cccc(C(F)(F)F)c1)N(Cc1ccccc1)C1CCN(Cc2ccc3c(c2)OCO3)CC1` equal to or greater than 50 µM?
NO

----------
Listing of entries alongside the reported Kd.
study.system: DCN1-like protein 1 (Homo sapiens)
Sequence (Q96GG9 whole entry): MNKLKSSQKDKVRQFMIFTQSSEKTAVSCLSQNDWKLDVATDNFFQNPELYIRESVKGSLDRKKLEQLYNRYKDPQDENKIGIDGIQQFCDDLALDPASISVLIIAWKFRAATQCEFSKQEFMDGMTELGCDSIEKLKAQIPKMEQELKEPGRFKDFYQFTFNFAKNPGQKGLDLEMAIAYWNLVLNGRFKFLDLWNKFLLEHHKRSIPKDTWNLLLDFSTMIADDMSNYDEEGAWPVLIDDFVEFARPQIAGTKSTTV
experiment.notes: Binding affinity biotinylated human GST-tagged DCN1 by ITC method

Previously resolved entries follow.
CCCN1CCC(N(Cc2ccco2)C(=O)Nc2cccc(C(F)(F)F)c2)CC1; 700 nM
CCCN1CCC(N(Cc2ccccc2)C(=O)Nc2cccc(C(F)(F)F)c2)CC1; 860 nM
CCCC(C)N1CCC(N(Cc2ccccc2)C(=O)Nc2cccc(C(F)(F)F)c2)CC1 (centres undefined); 140 nM

Entry `CCCCN1CCC(N(Cc2ccccc2)C(=O)Nc2cccc(C(F)(F)F)c2)CC1` : reported Kd = ?
700 nM

----------
experiment.notes: Solubility of the compound at pH 7.4 after 18 hrs by UV-spectroscopy
Assay type: physicochemical
measurement.setup: buffer
measured.metric: solubility at 18 h (µM)
Please reply with the bare figure in µM and do not write the unit itself.

Some compounds with recorded solubility at 18 h:
O=C(Nc1cccc(C(F)(F)F)c1)N(Cc1ccccc1)C1CCN(CCC(F)(F)F)CC1; 2.3
CCCCCN1CCC(N(Cc2ccccc2)C(=O)Nc2cccc(C(F)(F)F)c2)CC1; 58
Cc1cccc(CN2CCC(NC(=O)Nc3cccc(C(F)(F)F)c3)CC2)c1; 35

--- query ---
May I ask what solubility at 18 h has been recorded for `O=C(Nc1cccc(C(F)(F)F)c1)NC1CCN(Cc2ccccc2)CC1` ?
32
